Measurement Kind: melting point

The cases that follow already have their melting point on record.
melting point recorded for this compound, O=C(O)CC1CCCc2c1n(Cc1ccc(F)cc1)c1c(F)cc(F)cc21 (centres undefined) , is 195 to 196 °C

Noted for Cc1cn(-c2cc(NC(=O)c3ccc(Cl)c(C#Cc4cnc(NC5CC5)nc4)c3)cc(C(F)(F)F)c2)cn1 : its melting point reads 163 to 165 °C

Value of measured melting point for the entry COC(=O)C(Cc1ccc(OCc2ccccc2)cc1)NC(=O)c1cc2ccc(-c3ccc(Cl)cc3)cc2s1 (centres undefined) : 200 to 201 °C

Field melting point (entry O=C(N[C@@H](Cc1ccc(OCCc2coc(-c3ccccc3)n2)cc1)C(=O)O)c1ccc(Cl)cc1 ) reads 158 to 161 °C

Sample CSc1c(-c2ccccc2)[nH]c2ccccc12 ; melting point observed: 103 °C

// recorded melting point for COc1cc(Nc2nc3cccc(-c4cccc(CNC(C)=O)c4)c3o2)cc(OC)c1OC : 203 to 204 °C

Entry COc1cc(-c2nc3ccccc3n2Cc2cccc(C)c2)cc(OC)c1OC , melting point reported as 78 °C

Record summary for CC(=O)NCCc1ccc(CN2CCN(c3ccccc3)CC2)cc1 : reported melting point = 117 to 118 °C

Consider now this further compound.
Per the record, COc1cccc(Sc2ccccc2CC(=O)O)c1 has melting point of 63 to 65 °C

* * *

Measurement Kind: melting point

Record excerpt, results attached:
// NC(=NCC(F)(F)F)Nc1ccnc(SCCN2C(=O)c3ccccc3C2=O)n1 : melting point value = 192 to 195 °C

The molecule COc1cc2ncnc(Nc3ccc(F)c(Cl)c3)c2cc1OCC1(C)COCOC1 showed melting point equal to 212 to 213 °C

So, COc1ccc2c(c1)C13CCN(C)C(C2)C1(O)C=CC(=O)C3 (stereo unspecified) ? Its melting point was 213 to 215 °C

Value of melting point reported for the molecule O=c1[nH]c2c(n3ccnc13)Cc1ccccc1-2 is 350 °C

Lab note: COc1ccccc1C(=O)CN1c2nc(-c3ccncc3)cc(=O)n2CCC1c1ccccc1 (stereo unspecified) gave melting point of 142 to 144 °C

Short answer for COc1cc2c(c3c1OC(C)(C)C3)C(c1cccc(C(=O)NCC(N)=O)c1)=NC(C)(C)C2 : melting point was 141 to 142 °C

Value of melting point reported for the molecule CN1C(=O)C(=Cc2nc(C(C)(C)C)c(O)c(C(C)(C)C)n2)SC1=S is 226 to 228 °C

Please fill in: melting point reported for CC(C)(C)c1nc(Nc2nc(C(=O)O)cs2)nc(C(C)(C)C)c1O = 251 to 253 °C

Further cases:
Lab note: measured melting point of COc1ccc(-c2csc(CO)c2)cc1 was 136 to 138 °C

melting point in this record for C=CCc1cc(C(C)=O)c(O)cc1OCCCCC : 54 °C

CCOC(=O)CS(=O)(=O)c1ccc(C=C(C)c2ccc3c(c2)C(C)(C)CCC3(C)C)cc1 has a reported melting point of 117 to 118 °C

melting point in this record for CCOC(=O)C(=C1SCSCS1)c1ccc(Oc2ccccc2)cc1 : 134 to 135 °C

Notebook: COC(=O)C1=C(OC)c2ccccc2S(=O)(=O)N1C , melting point read as 79 to 80 °C
